assay: Solubility of CD101 acetate in various media; assay type: physicochemical; conditions: aqueous with cosolvent or surfactant or cyclodextrin; 2.5% Tween 80, 5% mannitol, 0.3% acetic acid, pH 4.5; maximum solubility not reached; read-out: Solubility
Starred links: 1 amine or outer side, 2 acyl side, 3 side chain; linkers in the order of their positions; H or OH if unused. Positions of bridges follow the written chain, without caps; N, C: chain ends. Non-standard residues stand in square brackets, D forms with d. Residues, ends and D or L forms follow the SMILES beside them. *: point of attachment. Orn(4R-OH,5R-OCH2CH2NMe3+) = C[N+](C)(C)CCO[C@@H](N[*:3])[C@H](O)C[C@H](N[*:1])C(=O)[*:2]; pTerphenylCO(4''-OnC5H11) = CCCCCOc1ccc(-c2ccc(-c3ccc(C(=O)*)cc3)cc2)cc1; hTyr(3S-OH,4S-OH) = N[C@H](C(=O)O)[C@H](O)[C@@H](O)c1ccc(O)cc1; Pro(3S-OH,4S-Me) = C[C@H]1CN[C@H](C(=O)O)[C@H]1O; Hyp = O=C(O)[C@@H]1C[C@@H](O)CN1
MEASUREMENT_LABEL: solubility

1) CCCCCOc1ccc(-c2ccc(-c3ccc(C(=O)N[C@H]4C[C@@H](O)[C@@H](OCC[N+](C)(C)C)NC(=O)[C@@H]5[C@@H](O)[C@@H](C)CN5C(=O)[C@H]([C@@H](C)O)NC(=O)[C@H]([C@H](O)[C@@H](O)c5ccc(O)cc5)NC(=O)[C@@H]5C[C@@H](O)CN5C(=O)[C@H]([C@@H](C)O)NC4=O)cc3)cc2)cc1 [CD101 acetate] ({pTerphenylCO(4''-OnC5H11)}-[Orn(4R-OH,5R-OCH2CH2NMe3+)]T[Hyp][hTyr(3S-OH,4S-OH)]T[Pro(3S-OH,4S-Me)]; lactam 1-C) | > 16 mg/mL

====

Assay: Solubility of CD101 acetate in various media
Assay type: physicochemical
Details: 150 mM potassium chloride, saline or isotonic; Potassium chloride (150 mM); read-out: Solubility
Text: Table 1 below provides the solubility of CD101 acetate in different solutions.
Starred links: 1 amine or outer side, 2 acyl side, 3 side chain; linkers in the order of their positions; H or OH if unused. Positions of bridges follow the written chain, without caps; N, C: chain ends. Non-standard residues stand in square brackets, D forms with d. Residues, ends and D or L forms follow the SMILES beside them. *: point of attachment. Orn(4R-OH,5R-OCH2CH2NMe3+) = C[N+](C)(C)CCO[C@@H](N[*:3])[C@H](O)C[C@H](N[*:1])C(=O)[*:2]; pTerphenylCO(4''-OnC5H11) = CCCCCOc1ccc(-c2ccc(-c3ccc(C(=O)*)cc3)cc2)cc1; hTyr(3S-OH,4S-OH) = N[C@H](C(=O)O)[C@H](O)[C@@H](O)c1ccc(O)cc1; Pro(3S-OH,4S-Me) = C[C@H]1CN[C@H](C(=O)O)[C@H]1O; Hyp = O=C(O)[C@@H]1C[C@@H](O)CN1
MEASUREMENT_LABEL: solubility (µg/mL)

1. CCCCCOc1ccc(-c2ccc(-c3ccc(C(=O)N[C@H]4C[C@@H](O)[C@@H](OCC[N+](C)(C)C)NC(=O)[C@@H]5[C@@H](O)[C@@H](C)CN5C(=O)[C@H]([C@@H](C)O)NC(=O)[C@H]([C@H](O)[C@@H](O)c5ccc(O)cc5)NC(=O)[C@@H]5C[C@@H](O)CN5C(=O)[C@H]([C@@H](C)O)NC4=O)cc3)cc2)cc1 [CD101 acetate] ({pTerphenylCO(4''-OnC5H11)}-[Orn(4R-OH,5R-OCH2CH2NMe3+)]T[Hyp][hTyr(3S-OH,4S-OH)]T[Pro(3S-OH,4S-Me)]; lactam 1-C) | 160
